Assay: Viability qHTS for spleen associated tyrosine kinase inhibitor (SYKi) drug resistant MV4-11 cells (AID 1963824); further: nearly all actives have a fitted effect of over 35% in size
Settings: SYKi-resistant MV4-11 viability, CellTiter-Glo, 72 h; series mostly up to 45 µM
Inconclusive results are not listed. The source made the active and inactive calls. The call rests on the fitted dose curve; in most records, active means well fitted cell-killing curve with a large enough effect; inconclusive means small, poorly fitted or top-dose-only effect, or effect the other way; inactive means no such curve, though single readings can be large or run the other way.
Here the recorded viability, % of control is given for each entry.

COMPOUND	OBSERVED
C[C@H]1[C@H](C)CC[C@]2(C(=O)OC3OC(CO)C(O)C(O)C3O)CC[C@]3(C(=O)O)C(=CCC4[C@@]5(C)CC[C@H](O[C@@H]6O[C@@H](C)[C@H](OC7OC(CO)C(O)C(O)C7O)[C@@H](O)[C@H]6O)C(C)(C)C5CC[C@]43C)[C@H]12 (stereo partly specified)	108% [at 9.25 µM] (inactive)
CC1(C)CCC2(C(=O)OC3OCC(O)C(O)C3O)CCC3(C)C(=CCC4C5(C)CC(O)C(OC6OC(COC7OCC(O)C(O)C7O)C(O)C(O)C6O)C(C)(C)C5CCC43C)C2C1 (stereo unspecified)	78.5% [at 9.25 µM] (inactive)
CC1(C(=O)O)CC[C@]2(C(=O)OC3OC(CO)C(O)C(O)C3O)CC[C@]3(C)C(=CCC4[C@@]5(C)CC[C@H](OC6OCC(O)C(O)C6OC6OC(CO)C(O)C(O)C6O)C(C)(C)C5CC[C@]43C)C2C1 (stereo partly specified)	78.9% [at 9.25 µM] (inactive)
CCN(CCO)CCCC(C)Nc1ccnc2cc(Cl)ccc12 (stereo unspecified)	88.8% [at 4.97 µM] (inactive)

Any idea what viability, % of control was measured for CC1(C=O)CC[C@]2(C(=O)O[C@@H]3O[C@H](CO)[C@@H](O)[C@H](O)[C@H]3O)CC[C@]3(C)C(=CCC4[C@@]5(C)C[C@H](O)[C@H](O[C@@H]6OC[C@@H](O)[C@H](O)[C@H]6O)[C@@](C)(CO)C5CC[C@]43C)C2C1 (stereo partly specified) ? 103% [at 9.25 µM] (inactive)

Then CC(C)C[C@H](CC(=O)NO)C(=O)N[C@H](C(=O)N[C@@H](C)C(=O)NCCN)C(C)(C)C ? 90.6% [at 9.25 µM] (inactive)

Then C[C@@H]1O[C@@H](O[C@@H]2[C@@H](O)[C@@H](O[C@]3(CO)O[C@H](CO)[C@@H](O)[C@@H]3OC(=O)/C=C/c3ccc(O)cc3)O[C@H](CO)[C@H]2OC(=O)/C=C/c2ccc(O)cc2)[C@H](O)[C@H](O)[C@H]1O[C@@H]1O[C@@H](C)[C@H](O[C@@H]2OC[C@](O)(CO)[C@H]2O)[C@@H](O)[C@H]1O ? 102% [at 9.25 µM] (inactive)

Then C=CC(C)(O)CC/C=C(\C)C(=O)OC1CC2(C(=O)O)CCC3(C)C(=CCC4C5(C)CCC(OC6OC(COC7OCC(O)C(O)C7O)C(O)C(OC7OCC(O)C(O)C7O)C6OC6OC(CO)C(O)C(O)C6OC6OCC(O)C(O)C6O)C(C)(C)C5CCC43C)C2CC1(C)C (stereo unspecified) ? 68% [at 9.25 µM] (inactive)

Then CC(C)(C)NCc1cc(Nc2ccnc3cc(Cl)ccc23)c2c(c1O)CCCC2 ? 102% [at 0.588 µM] (inactive)

Then CC[C@H](Nc1ncnc2nc[nH]c12)c1nc2cccc(F)c2c(=O)n1-c1ccccc1 ? 61.7% [at 9.25 µM] (inactive)

Then CC(C)=CC1C[C@](C)(O)[C@@H]2[C@H]3CCC4[C@@]5(C)CC[C@H](O[C@@H]6OC[C@H](O)[C@H](O[C@@H]7O[C@H](CO[C@@H]8O[C@H](CO)[C@@H](O)[C@H](O)[C@H]8O)[C@@H](O)[C@H](O)[C@H]7O)[C@H]6O[C@@H]6O[C@@H](C)[C@H](O)[C@@H](O)[C@H]6O)C(C)(C)[C@@H]5CC[C@@]4(C)[C@@]34CO[C@@]2(C4)O1 (stereo partly specified) ? 96.9% [at 9.25 µM] (inactive)
